experiment: qHTS for Inhibitors of Inflammasome Signaling: IL-1-beta AlphaLISA Primary Screen; settings: THP-1 LPS/ATP IL-1B secretion, 16 h; at 57.5 µM, active compounds read low; further: on the % scale 0 is the no-effect control and ±100 the full control effect
The whole screen tested about 360,000 compounds, of which about 17,000 (4.7%) were called active. Roughly 5% stayed inconclusive and do not appear here. This is one part of a sample in which actives are shown more often than they occur.

{"compound": "Brc1ccc2nc(-c3ccccc3)c(Cc3ccccc3)n2c1", "activity change / %": 28.2}
{"compound": "CC(C)(C)c1ccc(Cn2nnc3c(=O)[nH]c(C4CCCN(C(=O)c5ccco5)C4)nc32)cc1 (centres undefined)", "activity change / %": -12.5}
{"compound": "Nc1c(Cl)cc(-c2csc(N3CCCC3c3nc4cc(Cl)c(Cl)cc4n3CCOCCO)n2)cc1Cl (centres undefined)", "activity change / %": -4.36}
{"compound": "O=C(Nc1ccc(Cl)cc1)c1csc([C@@H]2O[C@H](CO)[C@H](O)[C@H](O)[C@H]2O)n1", "activity change / %": 17.3}
{"compound": "COc1cccc(/C=N/Nc2ccc(S(=O)(=O)Nc3ccccc3C(=O)O)cc2[N+](=O)[O-])c1O", "activity change / %": -5.79}
{"compound": "COc1cccc(/C=N/Nc2cc(C)nc(-c3ccccc3O)n2)c1O", "activity change / %": -99.4}
{"compound": "Cc1ccc(S(=O)(=O)Nc2ccccc2CNc2c(C)n(C)n(-c3ccccc3)c2=O)cc1", "activity change / %": -4.94}
{"compound": "COc1ccc(/C=N/Nc2cc(N3CCOCC3)nc(C)n2)c(OC)c1", "activity change / %": -8.96}
{"compound": "CC(=O)N1CCc2cc(Br)cc(S(=O)(=O)CCC(=O)Nc3c(C)n(C)n(-c4ccccc4)c3=O)c21", "activity change / %": 4.54}

###

experiment: qHTS for Inhibitors of Inflammasome Signaling: IL-1-beta AlphaLISA Primary Screen; details: THP-1 LPS/ATP IL-1B secretion, 16 h; at 57.5 µM, active compounds read low
Among all 360,000 compounds or so, about 17,000 (4.7%) were called active. Another 5% or so got no clear call; they are omitted. The list comes from a sample in which actives are over-represented; it also holds close analogues and randomly drawn compounds.

{"molecule": "CC1=C(C(=O)N2CCOCC2)CC(CC(=O)NCCCN(C)C)C(=O)N1Cc1ccc(C(C)(C)C)cc1 (stereo unspecified)", "result-unit": "%", "activity change": -21.9}
{"molecule": "O=C(CN1C(=O)NC2(CCc3ccccc32)C1=O)NC1CCCCC1 (stereo unspecified)", "result-unit": "%", "activity change": -10.5}
{"molecule": "Cc1ccc(C(C(=O)NCC2CCCO2)N(C(=O)c2snc(C(N)=O)c2N)c2ccc(C(C)C)cc2)o1 (stereo unspecified)", "result-unit": "%", "activity change": -54.6}
{"molecule": "COc1cc([C@H](Cc2ccccc2)NC(C)=O)oc(=O)c1", "result-unit": "%", "activity change": 22.9}
{"molecule": "COc1ccc(C/C(N)=N/OC(=O)c2ccco2)cc1OC", "result-unit": "%", "activity change": 9.63}
{"molecule": "COc1ccc(C(=O)O/N=C(\\N)Cc2ccc(Cl)cc2Cl)cc1OC", "result-unit": "%", "activity change": -58.9}
{"molecule": "CC12CCCCC1=CC(=O)CC2 (stereo unspecified)", "result-unit": "%", "activity change": 13.3}
{"molecule": "Nc1nc2ncccn2c1-c1ccccc1", "result-unit": "%", "activity change": 18.6}
{"molecule": "COc1ccc(C(=O)ON=C2c3ccccc3-c3ccccc32)cc1OC", "result-unit": "%", "activity change": 0}
{"molecule": "Cc1cccc(N(C(=O)c2sc(C)nc2C)C(C(=O)NCC2CCCO2)c2ccccc2)c1 (stereo unspecified)", "result-unit": "%", "activity change": 17.8}
{"molecule": "COc1ccc(C(C(=O)NC2CCCCC2)N(C(=O)c2snc(C(N)=O)c2N)c2ccccc2OC)cc1 (stereo unspecified)", "result-unit": "%", "activity change": -4.36}
